tested system: AKT (Homo sapiens, UniProt Q9Y243)
Construct: Kinases are expressed as either kinase domains or full length constructs; made in house
Sequence (Q9Y243 whole entry, the tested form may be a part): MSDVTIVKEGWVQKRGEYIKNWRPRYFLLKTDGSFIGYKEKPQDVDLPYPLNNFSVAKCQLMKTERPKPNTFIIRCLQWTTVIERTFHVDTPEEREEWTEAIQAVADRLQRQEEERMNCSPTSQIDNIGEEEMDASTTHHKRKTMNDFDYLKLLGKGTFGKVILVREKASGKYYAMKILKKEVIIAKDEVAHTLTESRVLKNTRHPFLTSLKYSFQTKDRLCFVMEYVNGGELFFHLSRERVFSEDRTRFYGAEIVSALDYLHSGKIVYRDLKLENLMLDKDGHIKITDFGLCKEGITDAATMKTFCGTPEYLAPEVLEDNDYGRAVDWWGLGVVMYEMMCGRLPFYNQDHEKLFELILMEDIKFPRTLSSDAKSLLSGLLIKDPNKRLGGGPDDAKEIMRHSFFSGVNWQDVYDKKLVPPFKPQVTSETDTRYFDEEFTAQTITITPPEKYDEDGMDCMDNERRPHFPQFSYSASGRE
experiment notes: Kinase inhibition assay (33P transfer), AKT
Format: biochemical
condition summary: Table 2, kinase inhibition class; read-out: AKT3-1
Excerpt: The inhibitor compounds described herein are screened in the following manner. […] Kinases are expressed as either kinase domains or full length constructs fused to glutathione S-transferase (GST) or polyHistidine tagged fusion proteins in either E. colior Baculovirus-High Five expression systems. […]
pIC50: −log10 of the molar value.
Listed below: pIC50 values for each entry.

Previously resolved entries follow.
COc1cc(Nc2ncnc(N3c4ccccc4CCC3C)n2)cc(OC)c1OC (centres unmarked) = < 4.96
COc1ccc(Nc2ncnc(NCc3c(C)cccc3Cl)n2)cc1OC = < 4.93
CCCN(CC1CC1)c1ncnc(Nc2cc(OC)c(OC)c(OC)c2)n1 = < 4.92
COc1cc(Nc2ncnc(Nc3cc(-c4cccc(C)c4)n[nH]3)n2)cc(OC)c1OC = < 4.98

Now turn to the next molecule.
Task item: What value of measured pIC50 is listed for `COc1ccc(Nc2nc3ccccc3n2-c2ncnc(Nc3cc(OC)c(OC)c(OC)c3)n2)c(C)c1` ?
Reply: < 5.06
